Entries and their measured log10 of concentration at 24 h follow.
Test Protocol: Parent and phosphate concentrations in the BLR assay
Cond: rat, in vivo, po, Lewis rats dosed orally
Measured Property: log10 of concentration at 24 h (log10 of the value in nM)

{"Chemical Structure": "CCCCOCCOc1nc2c(s1)-c1ccc([C@H]3CC[C@](N)(CO)C3)cc1CC2", "Measured Property": "log10 of concentration at 24 h", "Numeric Result": 2.15}
{"Chemical Structure": "CCCCN(C)c1nc2c(s1)-c1ccc([C@H]3CC[C@](N)(CO)C3)cc1CC2", "Measured Property": "log10 of concentration at 24 h", "Numeric Result": 1.26}
{"Chemical Structure": "CCCCc1nc2c(s1)-c1ccc([C@H]3CC[C@](N)(CO)C3)cc1CC2", "Measured Property": "log10 of concentration at 24 h", "Numeric Result": 1.82}
{"Chemical Structure": "CCCCOc1nc2ccc3cc([C@H]4CC[C@](N)(CO)C4)ccc3c2s1", "Measured Property": "log10 of concentration at 24 h", "Numeric Result": 1.32}
{"Chemical Structure": "CCCCSc1nc2ccc3cc([C@H]4CC[C@](N)(CO)C4)ccc3c2s1", "Measured Property": "log10 of concentration at 24 h", "Numeric Result": 0.90}
{"Chemical Structure": "CCCCCOc1nc2ccc3cc([C@H]4CC[C@](N)(CO)C4)ccc3c2s1", "Measured Property": "log10 of concentration at 24 h", "Numeric Result": 1.23}
{"Chemical Structure": "Cc1ccc(-c2nc3c(s2)-c2ccc([C@H]4CC[C@](N)(CO)C4)cc2CC3)cc1", "Measured Property": "log10 of concentration at 24 h", "Numeric Result": 1.57}
{"Chemical Structure": "CCCCCOc1nc2c(s1)-c1ccc([C@H]3CC[C@](N)(CO)C3)cc1CC2", "Measured Property": "log10 of concentration at 24 h", "Numeric Result": 1.46}
{"Chemical Structure": "CCCCSc1nc2c(s1)-c1ccc([C@H]3CC[C@](N)(CO)C3)cc1CC2", "Measured Property": "log10 of concentration at 24 h", "Numeric Result": 0.00}

---

Entries and their measured concentration at 24 h follow.
Test Protocol: Parent and phosphate concentrations in the BLR assay
Cond: rat, in vivo, po, Lewis rats dosed orally
Method: Blood Lymphocyte Reduction (BLR) Assay in Rodent: Lewis rats were dosed orally with vehicle alone (polyethylene glycol 300, “PEG300”) or with test compounds. […] Blood was drawn at 24 hr and blood lymphocyte counts were determined on an ADVIA 120 Hematology Analyzer (Siemens Healthcare Diagnostics). The results were measured as a reduction in the percentage of circulating lymphocytes as compared to the vehicle treated group at the time of measurement. […]

{"Chemical Structure": "CCCCCSc1nc2c(s1)-c1ccc([C@H]3CC[C@](N)(CO)C3)cc1CC2", "concentration at 24 h, nM": 16}
{"Chemical Structure": "CCCCCCc1nc2c(s1)-c1ccc([C@H]3CC[C@](N)(CO)C3)cc1CC2", "concentration at 24 h, nM": 9}
{"Chemical Structure": "CCCCOc1nc2c(s1)-c1ccc([C@H]3CC[C@](N)(CO)C3)cc1CC2", "concentration at 24 h, nM": 7}
{"Chemical Structure": "COc1cccc(-c2nc3c(s2)-c2ccc([C@H]4CC[C@](N)(CO)C4)cc2CC3)c1", "concentration at 24 h, nM": 68}
{"Chemical Structure": "CCCCNc1nc2c(s1)-c1ccc([C@H]3CC[C@](N)(CO)C3)cc1CC2", "concentration at 24 h, nM": 0}
{"Chemical Structure": "CCCCCCCc1nc2c(s1)-c1ccc([C@H]3CC[C@](N)(CO)C3)cc1CC2", "concentration at 24 h, nM": 111}
{"Chemical Structure": "CCCCCCOc1nc2c(s1)-c1ccc([C@H]3CC[C@](N)(CO)C3)cc1CC2", "concentration at 24 h, nM": 31}
{"Chemical Structure": "CCCCCCOc1nc2ccc3cc([C@H]4CC[C@](N)(CO)C4)ccc3c2s1", "concentration at 24 h, nM": 78}

---

Experimental System: UniProtKB Q99500
Sequence (Q99500 whole entry): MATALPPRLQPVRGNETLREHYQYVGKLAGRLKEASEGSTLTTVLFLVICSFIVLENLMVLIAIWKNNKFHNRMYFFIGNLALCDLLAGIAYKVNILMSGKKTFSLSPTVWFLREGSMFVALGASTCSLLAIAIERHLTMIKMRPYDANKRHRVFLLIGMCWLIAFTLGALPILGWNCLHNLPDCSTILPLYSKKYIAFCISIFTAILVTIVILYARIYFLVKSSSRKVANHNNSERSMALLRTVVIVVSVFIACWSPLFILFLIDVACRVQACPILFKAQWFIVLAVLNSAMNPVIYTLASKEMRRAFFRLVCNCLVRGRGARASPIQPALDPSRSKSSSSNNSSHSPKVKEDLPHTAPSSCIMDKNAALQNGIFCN
Test Protocol: Receptor [35S] GTPγS binding assay (S1P3 GTPγS)
Cond: membranes from EDG3-Ga15-bla HEK293T cells; read-out: S1P3 GTPgS (EC50)
Entries and their measured EC50 follow.

{"Chemical Structure": "CCCc1nc2c(s1)-c1ccc([C@H]3CC[C@](N)(COP(=O)(O)O)C3)cc1CC2", "EC50": "> 3 µM"}
{"Chemical Structure": "CCCCOCCOc1nc2c(s1)-c1ccc([C@H]3CC[C@](N)(COP(=O)(O)O)C3)cc1CC2", "EC50": "0.19 µM"}
{"Chemical Structure": "CCCCCCOc1nc2c(s1)-c1ccc([C@H]3CC[C@](N)(COP(=O)(O)O)C3)cc1CC2", "EC50": "> 3 µM"}
{"Chemical Structure": "CCCCCCCc1nc2c(s1)-c1ccc([C@H]3CC[C@](N)(COP(=O)(O)O)C3)cc1CC2", "EC50": "> 3 µM"}
{"Chemical Structure": "CCCCSc1nc2c(s1)-c1ccc([C@H]3CC[C@](N)(COP(=O)(O)O)C3)cc1CC2", "EC50": "> 3 µM"}
{"Chemical Structure": "CCCCNc1nc2c(s1)-c1ccc([C@H]3CC[C@](N)(COP(=O)(O)O)C3)cc1CC2", "EC50": "> 3 µM"}
{"Chemical Structure": "CCCCOc1nc2c(s1)-c1ccc([C@H]3CC[C@](N)(COP(=O)(O)O)C3)cc1CC2", "EC50": "> 3 µM"}

---

Test system: circulating lymphocytes
Test Protocol: Blood Lymphocyte Reduction (BLR) assay in rodent
Assay type: in vivo
Cond: 4 Hours; Lewis rats dosed orally; vs vehicle group
Measured Property: Lymp. Red.

{"Chemical Structure": "CCCc1nc2c(s1)-c1ccc([C@H]3CC[C@](N)(CO)C3)cc1CC2", "Measured Property": "Lymp. Red.", "Result": "41%"}
{"Chemical Structure": "CCCCOCCOc1nc2c(s1)-c1ccc([C@H]3CC[C@](N)(CO)C3)cc1CC2", "Measured Property": "Lymp. Red.", "Result": "79%"}
{"Chemical Structure": "COc1cccc(-c2nc3c(s2)-c2ccc([C@H]4CC[C@](N)(CO)C4)cc2CC3)c1", "Measured Property": "Lymp. Red.", "Result": "31%"}
{"Chemical Structure": "CCCCOc1nc2ccc3cc([C@H]4CC[C@](N)(CO)C4)ccc3c2s1", "Measured Property": "Lymp. Red.", "Result": "65%"}
{"Chemical Structure": "CCCCCSc1nc2c(s1)-c1ccc([C@H]3CC[C@](N)(CO)C3)cc1CC2", "Measured Property": "Lymp. Red.", "Result": "72%"}
{"Chemical Structure": "CCCCSc1nc2ccc3cc([C@H]4CC[C@](N)(CO)C4)ccc3c2s1", "Measured Property": "Lymp. Red.", "Result": "69%"}
{"Chemical Structure": "CCCCCOc1nc2c(s1)-c1ccc([C@H]3CC[C@](N)(CO)C3)cc1CC2", "Measured Property": "Lymp. Red.", "Result": "67%"}
{"Chemical Structure": "Cc1ccc(-c2nc3c(s2)-c2ccc([C@H]4CC[C@](N)(CO)C4)cc2CC3)cc1", "Measured Property": "Lymp. Red.", "Result": "9%"}
{"Chemical Structure": "CCCCOc1nc2c(s1)-c1ccc([C@H]3CC[C@](N)(CO)C3)cc1CC2", "Measured Property": "Lymp. Red.", "Result": "74%"}
{"Chemical Structure": "CCCCCCc1nc2c(s1)-c1ccc([C@H]3CC[C@](N)(CO)C3)cc1CC2", "Measured Property": "Lymp. Red.", "Result": "66%"}

---

Entries and their measured BL (×10^3/mm^3) follow.
System: circulating lymphocytes
Test Protocol: Blood Lymphocyte Reduction (BLR) assay in rodent
Format: in vivo
Cond: 4 Hours; Lewis rats dosed orally; n=2

{"Molecule": "CCCCCCOc1nc2c(s1)-c1ccc([C@H]3CC[C@](N)(CO)C3)cc1CC2 [Example 9]", "BL (×10^3/mm^3)": "2.8 ×10^3/mm^3"}
{"Molecule": "CCCCOc1nc2c(s1)-c1ccc([C@H]3CC[C@](N)(CO)C3)cc1CC2 [Example 8]", "BL (×10^3/mm^3)": "2.5 ×10^3/mm^3"}
{"Molecule": "CCCCCCc1nc2c(s1)-c1ccc([C@H]3CC[C@](N)(CO)C3)cc1CC2 [Example 5]", "BL (×10^3/mm^3)": "2.8 ×10^3/mm^3"}
{"Molecule": "CCCCCSc1nc2c(s1)-c1ccc([C@H]3CC[C@](N)(CO)C3)cc1CC2 [Example 11]", "BL (×10^3/mm^3)": "2.3 ×10^3/mm^3"}
{"Molecule": "CCCCOc1nc2ccc3cc([C@H]4CC[C@](N)(CO)C4)ccc3c2s1 [Example 16]", "BL (×10^3/mm^3)": "2.9 ×10^3/mm^3"}
{"Molecule": "CCCCOCCOc1nc2c(s1)-c1ccc([C@H]3CC[C@](N)(CO)C3)cc1CC2 [Example 7]", "BL (×10^3/mm^3)": "1.9 ×10^3/mm^3"}
{"Molecule": "CCCCN(C)c1nc2c(s1)-c1ccc([C@H]3CC[C@](N)(CO)C3)cc1CC2 [Example 18]", "BL (×10^3/mm^3)": "5.9 ×10^3/mm^3"}
{"Molecule": "CCCCCOc1nc2ccc3cc([C@H]4CC[C@](N)(CO)C4)ccc3c2s1 [Example 15]", "BL (×10^3/mm^3)": "1.7 ×10^3/mm^3"}
{"Molecule": "CCCCSc1nc2c(s1)-c1ccc([C@H]3CC[C@](N)(CO)C3)cc1CC2 [Example 10]", "BL (×10^3/mm^3)": "1.7 ×10^3/mm^3"}
{"Molecule": "Cc1ccc(-c2nc3c(s2)-c2ccc([C@H]4CC[C@](N)(CO)C4)cc2CC3)cc1 [Example 19]", "BL (×10^3/mm^3)": "7.5 ×10^3/mm^3"}
{"Molecule": "CCCCSc1nc2ccc3cc([C@H]4CC[C@](N)(CO)C4)ccc3c2s1 [Example 14]", "BL (×10^3/mm^3)": "2.6 ×10^3/mm^3"}
{"Molecule": "CCCCCCCc1nc2c(s1)-c1ccc([C@H]3CC[C@](N)(CO)C3)cc1CC2 [Example 1]", "BL (×10^3/mm^3)": "5.7 ×10^3/mm^3"}
{"Molecule": "CCCCNc1nc2c(s1)-c1ccc([C@H]3CC[C@](N)(CO)C3)cc1CC2 [Example 17]", "BL (×10^3/mm^3)": "5.8 ×10^3/mm^3"}
{"Molecule": "CCCc1nc2c(s1)-c1ccc([C@H]3CC[C@](N)(CO)C3)cc1CC2 [Example 2]", "BL (×10^3/mm^3)": "4.9 ×10^3/mm^3"}
{"Molecule": "CCCCCCOc1nc2ccc3cc([C@H]4CC[C@](N)(CO)C4)ccc3c2s1 [Example 13]", "BL (×10^3/mm^3)": "2.5 ×10^3/mm^3"}
{"Molecule": "COc1cccc(-c2nc3c(s2)-c2ccc([C@H]4CC[C@](N)(CO)C4)cc2CC3)c1 [Example 20]", "BL (×10^3/mm^3)": "5.7 ×10^3/mm^3"}
{"Molecule": "CCCCCOc1nc2c(s1)-c1ccc([C@H]3CC[C@](N)(CO)C3)cc1CC2 [Example 12]", "BL (×10^3/mm^3)": "2.8 ×10^3/mm^3"}
{"Molecule": "CCCCc1nc2c(s1)-c1ccc([C@H]3CC[C@](N)(CO)C3)cc1CC2 [Example 6]", "BL (×10^3/mm^3)": "3.4 ×10^3/mm^3"}
